TARGET_SYSTEM: SARM1 (50-724) (Homo sapiens, UniProt Q6SZW1)
Sequence (Q6SZW1 50-724): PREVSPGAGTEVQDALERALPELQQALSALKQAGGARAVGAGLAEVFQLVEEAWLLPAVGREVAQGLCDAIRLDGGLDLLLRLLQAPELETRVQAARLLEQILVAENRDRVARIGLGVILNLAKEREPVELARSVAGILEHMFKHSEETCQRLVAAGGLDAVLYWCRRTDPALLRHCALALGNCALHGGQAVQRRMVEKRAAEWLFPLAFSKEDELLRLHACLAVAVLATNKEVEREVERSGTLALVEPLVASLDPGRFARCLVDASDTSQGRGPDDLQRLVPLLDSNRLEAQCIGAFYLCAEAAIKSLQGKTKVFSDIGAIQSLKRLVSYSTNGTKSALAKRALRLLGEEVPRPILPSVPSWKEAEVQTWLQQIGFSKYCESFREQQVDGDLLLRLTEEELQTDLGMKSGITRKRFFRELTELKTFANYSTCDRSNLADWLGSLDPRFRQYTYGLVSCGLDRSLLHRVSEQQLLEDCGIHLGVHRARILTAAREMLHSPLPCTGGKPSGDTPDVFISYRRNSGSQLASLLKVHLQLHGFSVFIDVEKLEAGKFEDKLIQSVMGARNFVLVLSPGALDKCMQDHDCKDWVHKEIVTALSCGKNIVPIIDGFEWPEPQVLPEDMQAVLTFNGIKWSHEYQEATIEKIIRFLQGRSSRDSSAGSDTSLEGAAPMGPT
TEST_DESCRIPTION: biochemical
# IC50 annotations

The examples below pair each entry with its known result.
# MOLECULE, TARGET_SYSTEM, QUANTITY_NAME, OBSERVED_RESULT
measured = [
    ("Cc1nc(C(C)Nc2ccc3cc[nH]c(=O)c3c2)sc1Cl (racemic)", "SARM1 (50-724) (Homo sapiens, UniProt Q6SZW1)", "IC50", "< 100 nM"),
    ("O=C1Cc2ccc(NS(=O)(=O)c3cccc(Cl)c3Cl)cc2CN1", "SARM1 (50-724) (Homo sapiens, UniProt Q6SZW1)", "IC50", "100 to 500 nM"),
    ("CCC1CCCCN1S(=O)(=O)Nc1ccc2c(c1)C(=O)NCC2 (racemic)", "SARM1 (50-724) (Homo sapiens, UniProt Q6SZW1)", "IC50", "> 1000 nM"),
    ("CC(Nc1cc(F)c2c(c1)C(=O)N(CC(N)=O)C2(C)C)c1nc(Cl)c(Cl)s1 (racemic)", "SARM1 (50-724) (Homo sapiens, UniProt Q6SZW1)", "IC50", "< 100 nM"),
]

Could you now consider this next molecule?
Entry `O=S(=O)(Nc1ccc(Cc2cncs2)cc1)c1cccc(Cl)c1Cl` , IC50 reported as < 100 nM
